# assay.protocol: Caco-2 cell monolayer permeation (transepithelial transport)
# Assay type: in vitro ADME
# condition.parameters: human; BRP2 50 μM; Caco-2, 21-day, transwell, apical to basolateral, HBSS 25 mM HEPES pH 7.4, 37°C, time point 120 min, UHPLC-MS/MS, means ± S.D.
Ends that are not written are not given here.

{"substance": "SFNPTQL [BRP2, Ser-Phe-Asn-Pro-Thr-Gln-Leu]", "Papp A→B at 120 min, 50 μM / ×10⁻⁶ cm/s": 0.2}

---

# assay.protocol: Caco-2 cell monolayer permeation (transepithelial transport)
# Type: in vitro ADME
# condition.parameters: human; BRP2 1 μM; Caco-2, 21-day, transwell, apical to basolateral, HBSS 25 mM HEPES pH 7.4, 37°C, time point 120 min, UHPLC-MS/MS, means ± S.D.
Ends that are not written are not given here.

{"substance": "SFNPTQL [BRP2, Ser-Phe-Asn-Pro-Thr-Gln-Leu]", "Papp A→B at 120 min, 1 μM, ×10⁻⁶ cm/s": 0.53}
